# EXPERIMENTAL DETAILS: GFP drop in mixed WT/humanized-ribosome E. coli culture – GFP/RFP fluorescence, OD600, single point, bacterial rRNA inhibitor project, primary screen (AID 720706)
# CONDITION: E. coli WT GFP vs humanized-ribosome RFP mutants, 24 h, DMSO median 0, no signal -100
The campaign covered roughly 350,000 compounds. About 5,500 (1.6%) were called active.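 The calls were made as follows: active = significant combined selectivity score with lowered wild-type GFP, culture density cut under 30%, mutant RFP and density less affected; inactive = any of these conditions unmet.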 The sample as a whole holds a higher share of actives than the screen did.
Entry note: the call must match one of 1 (yes) = active, 0 (no) = inactive

Example results:
> print(dat)
                                   compound  classification
1  COc1ccc(S(=O)(=O)N(C)C[C@@H]2OCCCC[C@@H](C)Oc3ccc(NS(C)(=O)=O)cc3C(=O)N([C@H](C)CO)C[C@@H]2C)cc1          0 (no)
2  C=CCC1(C#N)C(=S)NC(C)=C(C(=O)OCC)C1c1ccccc1 (stereo not given)         1 (yes)
3  C[C@H](CO)N1C[C@H](C)[C@@H](CN(C)Cc2ccc3c(c2)OCO3)OCCCC[C@H](C)Oc2ccc(NC(=O)Nc3ccc(C(F)(F)F)cc3)cc2C1=O          0 (no)
4                NN=C(NN=Cc1ccccc1)c1ccccc1          0 (no)
5  CCOc1ccc2nc(C(=O)N3CCCC(C)C3)sc2c1 (stereo not given)          0 (no)

From here, focus on the item given below.
Returns: the outcome recorded for CC1CCCN(c2ccc(C(=O)NCCc3ccccc3)cn2)C1 (stereo not given) in this assay.
1 (yes)

###

Exercise: for every item that follows, state its recorded OD600 change.
# EXPERIMENTAL DETAILS: GFP drop in mixed WT/humanized-ribosome E. coli culture – GFP/RFP fluorescence, OD600, single point, bacterial rRNA inhibitor project, primary screen (AID 720706)
# CONDITION: E. coli WT GFP vs humanized-ribosome RFP mutants, 24 h; measured here: OD600 growth, DMSO median 0, no signal -100
Screen size: about 350,000 compounds; about 5,500 (1.6%) were called active. This excerpt belongs to a sample that is enriched for actives.

Answered examples (5):
> print(dat)
                                   compound  property.measured  reported.result
1  COc1ccc(S(=O)(=O)Nc2ccc3c(c2)C(=O)N([C@H](C)CO)C[C@H](C)[C@H](CN(C)S(=O)(=O)c2ccc(Cl)cc2)O3)cc1       OD600 change           -8.14%
2        CSc1nc(-c2ccco2)nn1C(=O)c1ccccc1Cl       OD600 change           -15.3%
3  O=C(NNC(=S)NC1CC2CCC1C2)c1ccc(Cl)cc1 (stereo not drawn)       OD600 change           -6.95%
4  COc1ccc(NC(=O)N(C)C[C@H]2Oc3ccc(NC(=O)Nc4ccc5c(c4)OCO5)cc3C(=O)N([C@H](C)CO)C[C@H]2C)cc1       OD600 change            4.81%
5  C[C@@H]1CN([C@H](C)CO)C(=O)c2cc(NC(=O)Nc3ccccc3)ccc2O[C@@H](C)CCCCO[C@@H]1CN(C)S(=O)(=O)c1ccc(F)cc1       OD600 change           -2.21%

Batch: OD600 change for all items listed.
1. COc1ccc2c3c([nH]c2c1)[C@H](CO)N(C(=O)C1CCC1)CC31CCN(Cc2cccc(F)c2)CC1
2. Cc1noc(C)c1NC(=O)N(C)C[C@@H]1Oc2ccc(NC(=O)CCN3CCOCC3)cc2CC(=O)N([C@H](C)CO)C[C@@H]1C
3. COc1ccc(NC(=O)CSc2nc(SC)ns2)c(OC)c1

["-5.93%", "4.65%", "-9.82%"]

###

# EXPERIMENTAL DETAILS: GFP drop in mixed WT/humanized-ribosome E. coli culture – GFP/RFP fluorescence, OD600, single point, bacterial rRNA inhibitor project, primary screen (AID 720706)
# CONDITION: E. coli WT GFP vs humanized-ribosome RFP mutants, 24 h; measured here: RFP humanized mutant strains, DMSO median 0, no signal -100, concentration not given here
Screen size: about 350,000 compounds; about 5,500 (1.6%) were called active. The full list was thinned out, with actives kept by preference.
PROPERTY MEASURED: RFP signal change (%)
Give bare numbers, in %.

Worked cases, RFP signal change given:
> print(dat)
                                 smiles.str  unit.abbrev  reported.result
1              OCCN(Cc1ccccc1)Cc1ccc(Cl)cc1            %             0.44
2  Cc1cc(N2CCN(C)CC2)nc2ccc(NC(=S)N3CCOCC3)cc12            %            -1.37
3  C[C@@H]1CN([C@H](C)CO)C(=O)c2cccc(NC(=O)C3CC3)c2O[C@@H]1CN(C)C(=O)Nc1ccccc1            %          -0.0555

List RFP signal change for every entry below, keeping the order given.
1. Cc1ccc(S(=O)(=O)N(C)C[C@@H]2Oc3ccc(NC(=O)Cn4cnnn4)cc3CC(=O)N([C@H](C)CO)C[C@H]2C)cc1
2. O=C(Nc1ccccc1F)N[C@@H]1C=C[C@H](CC(=O)N2CCCCC2)O[C@@H]1CO

-4.09
-0.341

###

# EXPERIMENTAL DETAILS: GFP drop in mixed WT/humanized-ribosome E. coli culture – GFP/RFP fluorescence, OD600, single point, bacterial rRNA inhibitor project, primary screen (AID 720706)
# CONDITION: E. coli WT GFP vs humanized-ribosome RFP mutants, 24 h; stronger effect = lower value, DMSO median 0, no signal -100
Screen size: about 350,000 compounds; about 5,500 (1.6%) were called active. Shown is part of a subset that was picked to be rich in actives.
PROPERTY MEASURED: GFP signal change (wild-type ribosome) (%)
Answers are plain numbers, in %.

Below, each entry is followed by its recorded GFP signal change (wild-type ribosome) result.
> print(dat)
                                 smiles.str                       property.measured  unit.abbrev  reported.result
1  O=C(C1CC1)N1CCCCN2[C@H](CO)[C@H](c3ccc(-c4cccc(F)c4)cc3)[C@H]2C1  GFP signal change (wild-type ribosome)            %            -6.45
2  O=C(C[C@H]1C=C[C@H](NC(=O)CC2CC2)[C@@H](CO)O1)NCc1ccccc1  GFP signal change (wild-type ribosome)            %            -2.86
3       COc1ccccc1CC(=O)NCCc1c[nH]c2ccccc12  GFP signal change (wild-type ribosome)            %            -17.2
4  CCN(CC)S(=O)(=O)c1cc(C(=O)Nc2cc(S(=O)(=O)N3CCOCC3)ccc2N2CCCC2)ccc1F  GFP signal change (wild-type ribosome)            %            -10.4
5    CCOc1cc(/C=C2\SC(N3CCCCC3)=NC2=O)ccc1O  GFP signal change (wild-type ribosome)            %            -19.3

Provide the reported GFP signal change (wild-type ribosome) of each entry below, same order.
1. O=C(COC(=O)Cc1c[nH]c2ccccc12)NCCc1ccccc1
2. CC(C)=C1SC(N2CCN(c3ccc(C)c(Cl)c3)CC2)=NC1=O
3. CC(C)C#Cc1ccc([C@H]2[C@@H](CO)N3CCCCN(C(=O)Nc4ccccc4)C[C@H]23)cc1

1: 1.61; 2: -1.49; 3: -26

Hey, can you go through the list below and give me GFP signal change (wild-type ribosome) for every item?
1. O=C(NCCN1CCCCC1)[C@@H]1N[C@@H]2c3ccc(-c4ccccc4)c(=O)n3C[C@@H]2[C@H]1CO
2. C/C=C/c1ccc([C@@H]2[C@H](CO)N(CC3CCCC3)C23CN(C(=O)CC2CC2)C3)cc1

-1.4
-14.4

###

# EXPERIMENTAL DETAILS: GFP drop in mixed WT/humanized-ribosome E. coli culture – GFP/RFP fluorescence, OD600, single point, bacterial rRNA inhibitor project, primary screen (AID 720706)
# CONDITION: E. coli WT GFP vs humanized-ribosome RFP mutants, 24 h; measured here: RFP humanized mutant strains, DMSO median 0, no signal -100, concentration not given here
In all, about 350,000 compounds went through this assay and about 5,500 (1.6%) were called active. Shown is part of a subset that was picked to be rich in actives.
PROPERTY MEASURED: RFP signal change (%)
Answers are plain numbers, in %.

Here's what some known entries look like.
> print(dat)
                                 smiles.str  property.measured  reported.result
1  Cc1ccc(-c2ccc([C@H]3[C@H](CO)N4C(=O)CN(S(=O)(=O)c5cccc(F)c5)C[C@@H]34)cc2)cc1  RFP signal change            0.984
2        Cn1c(SCC(=O)Nc2nccs2)nnc1-c1cccnc1  RFP signal change            -1.48
3  COc1ccccc1CNC(=O)C[C@@H]1C[C@H]2c3cc(NC(=O)CN(C)C)ccc3O[C@H]2[C@@H](CO)O1  RFP signal change            -3.75
4  CC(=O)N1N=C(c2ccncc2)OC1(Cc1ccccc1)Cc1ccccc1  RFP signal change            -2.93
5  CCN(CC)CCNC(=O)c1ccc(NC(=O)c2c(F)cccc2Cl)cc1  RFP signal change           -0.531

Could you report RFP signal change for every entry in the following list?
1. C[C@H]1CN([C@@H](C)CO)C(=O)Cc2cc(NC(=O)C3CC3)ccc2O[C@H]1CN(C)S(=O)(=O)c1ccc(Cl)cc1
2. CCn1c(SCC(=O)Nc2nccs2)nnc1-c1ccco1
3. S=C(NN=Cc1ccccn1)Nc1ccccn1
4. O=C(N[C@@H](Cc1ccccc1)C(=O)OCc1ccccc1)c1nc[nH]c1C(=O)N[C@@H](Cc1ccccc1)C(=O)OCc1ccccc1

1: 2.87; 2: 0.233; 3: -6.11; 4: -0.702

Origin of values: PubChem BioAssay AID720706
